- assayExplanation: Cytotoxicity against human CEM/VLB cells
Rule: log(1/ID50) of 4 or more gives Criterion met; anything lower gives Criterion not met.

{"columns": ["molecule", "discreteLabel"],
 "data": [
  ["O=[N+]([O-])c1ccc(O)cc1", "Criterion not met"],
  ["CCCCCCOc1ccc(O)cc1", "Criterion met"],
  ["CCc1ccc(O)cc1", "Criterion not met"],
  ["NS(=O)(=O)c1ccc(O)cc1", "Criterion not met"],
  ["NC(=O)c1ccc(O)cc1", "Criterion not met"],
  ["Oc1ccccc1", "Criterion not met"],
  ["Oc1ccc(I)cc1", "Criterion not met"],
  ["CCCc1ccc(O)cc1", "Criterion not met"],
  ["COc1ccc(O)cc1", "Criterion met"],
  ["Cl.Nc1ccc(O)cc1 [4-AMINOPHENOL HYDROCHLORIDE]", "Criterion not met"]
]}
